// data source = PubChem BioAssay (NCI)

- method notes: NCI Yeast Anticancer Drug Screen. Data for the mec2-1 strain (AID 157)
- condition info: S. cerevisiae mec2-1 strain, at 50.0 µM, stronger effect = higher value
Compounds without any hit were thinned out: in the full panel of roughly 79,000, 15% have a hit.
readout type: growth inhibition (%)
Reply with just the number (in %).

| molecule | growth inhibition / % |
| --- | --- |
| CN1CCCC1c1cccc(Br)c1 (stereo not given) | 17.1 |
| COc1ccccc1N=Nc1c(N)nc(N)[nH]c1=O | 1.05 |
| ClCCOCCOc1c(Cl)cc(Cl)c(Cl)c1Cl | 27.6 |
| O=C1OC(C2OC(=O)C(=O)C2C(=O)c2ccc(Cl)c(Cl)c2)C(C(=O)c2ccc(Cl)c(Cl)c2)C1=O (stereo not given) | 63.8 |
| CC(C)CCC(C)(C)c1cc(O)ccc1O | 99.5 |
| COc1cccc2c1C(=O)c1c(O)c3c(c(O)c1C2=O)C[C@@](O)(/C(C)=N/NC(=O)c1ccc(Cl)c(Cl)c1)C[C@@H]3OC1CC(N)C(O)C(C)O1 (stereo not given in full) | 50.4 |

Supply measured growth inhibition of `O=C(NCCCl)N1CCC(CN=c2cc3n(-c4ccc(Cl)cc4)c4ccccc4nc-3cc2Nc2ccc(Cl)cc2)CC1` in your reply.
98.5

Supply measured growth inhibition of CC(=O)N1C(C(=O)NNc2ccccc2)CSC1c1ccccc1 (stereo not given) in your reply.
64.6

Supply measured growth inhibition of `O=C(COc1ccc(Cl)c(Cl)c1)Nc1ccc[n+](Cc2ccc(Cl)c(Cl)c2)c1` in your reply.
99.5

Supply measured growth inhibition of Nc1nc(=O)n(C2OC(CO)C(O)C2O)cc1[N+](=O)[O-] (stereo not given) in your reply.
18.9

----------
- method notes: NCI Yeast Anticancer Drug Screen. Data for the bub3 strain (AID 167)
- condition info: S. cerevisiae bub3 mutant strain, at 50.0 µM (retest, dose inferred, filed as 5.0)
The panel holds about 79,000 compounds, 15% with a hit somewhere; the sample as a whole holds those more often. Active and inactive are the calls of the source. Rule as the data show it: active = growth inhibition above about 70%; inactive = the rest.
// one of active, inactive, no free text

| compound | label |
| --- | --- |
| Cc1cc(C)c(CCCC(=O)c2c(C)cc(C)cc2C)c(C)c1 | inactive |
| C/C=C/C=C1\C=Cc2c(C(=O)OC)coc(=O)c21 | active |
| CCC(=O)C(=O)CC1CC(c2ccco2)=Nc2ccccc2S1 (stereo unspecified) | active |

Please indicate how the test categorized `N#CSCC(=O)c1ccccc1` .
active

Please indicate how the test categorized COc1ccc(C2=CCC3C4CC=C5CC(O)CCC5(C)C4CCC23C)s1 (stereo unspecified) .
inactive

Please indicate how the test categorized `S=C(C#Cc1ccccc1)Nc1ccccc1` .
active

----------
- method notes: NCI Yeast Anticancer Drug Screen. Data for the bub3 strain (AID 167)
- condition info: S. cerevisiae bub3 mutant strain, at 5.0 µM (retest, dose inferred, filed as 0.5), stronger effect = higher value
Compounds without any hit were thinned out: in the full panel of roughly 79,000, 15% have a hit.
readout type: growth inhibition (%)
Reply with just the number (in %).

Would you please look over these solved cases?
| compound | growth inhibition [%] |
| --- | --- |
| CCS(=O)(=O)c1ccc(NC(=O)OC2CC(C)CCC2C(C)C)cc1 (stereo unspecified) | 11 |
| Cc1cc(N=NC(N)=S)c2ccccc2c1O | 2 |
| CC(=O)N(C1=C(Cl)C(=O)c2ccccc2C1=O)c1ccc([N+](=O)[O-])cc1 | 99 |
| COc1ccccc1NC(=O)C1=C(C)NC(C)=C(C(=O)Nc2ccccc2OC)C1c1ccc(C2C(C(=O)Nc3ccccc3OC)=C(C)NC(C)=C2C(=O)Nc2ccccc2OC)cc1 | 40 |
| O=C(O)C1CCc2ccc3ccccc3c2C1c1cccc2ccccc12 (stereo unspecified) | 40 |
| CC(C)OC(=O)c1ccc(NC(=O)CCl)cc1 | -4 |
| CC(O[Si](c1ccccc1)(c1ccccc1)C(C)(C)C)[C@H](NC(=O)OC(C)(C)C)C(=O)O[Si](c1ccccc1)(c1ccccc1)C(C)(C)C (stereo partly specified) | 71 |
| [N-]=[N+]=CC(=O)C1(c2ccccc2)OC1c1ccccc1 (stereo unspecified) | -43 |
| CCCCCCCCCCCCCCCCCC[n+]1cccc(C(=O)c2ccccc2)c1 | 68 |
| CCCCCCN(CCCCCC)CCCC(O)c1cccc2ccccc12 (stereo unspecified) | -2 |

Now consider a different compound.
Supply measured growth inhibition of `Oc1c(Br)cc(Cl)cc1Br` in your reply.
-6
